Values compiled from paper PMC3923783.

biological target: ORF57 8-120;ALYREF 1-155 (REF2-I) (Herpesvirus saimiri;mouse, UniProt P13199;Q9JJW6 8-120;1-155, |); test: intrinsic Trp fluorescence titration; RNA into preformed 1:1 ORF57-ALYREF complex, 10 uM; apparent macroscopic Kd; Fluorescence: 20 mM phosphate pH 6.2, 50 mM NaCl, 50 mM L-Arg+L-Glu, 5 mM EDTA, 1 mM TCEP (temperature not stated); NMR: 20 mM phosphate pH 6.2, 50 mM NaCl, 50; details: protein: recombinant;recombinant; tags: ;; copies: 1;1
Sequence (P13199 8-120, chain 1 of 2): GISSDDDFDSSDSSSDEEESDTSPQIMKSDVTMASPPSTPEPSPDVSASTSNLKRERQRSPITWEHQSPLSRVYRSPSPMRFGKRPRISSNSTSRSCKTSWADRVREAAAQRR
Sequence (Q9JJW6 1-155, chain 2 of 2): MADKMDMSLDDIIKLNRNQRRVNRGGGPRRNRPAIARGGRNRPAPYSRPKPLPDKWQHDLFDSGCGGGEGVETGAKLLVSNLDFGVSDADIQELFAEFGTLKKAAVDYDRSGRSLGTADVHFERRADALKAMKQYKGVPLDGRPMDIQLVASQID
readout_kind: Kd
Numeric answer plus unit only.

The reported Kd of the binder CAGUCGCGAAGAGG (ssRNA) [14merS] was 1550 nM
